Quick reference: Test B disease control rating of the listed items.
- Test system: Zymoseptoria tritici (the causal agent of wheat leaf blotch)
- PROCEDURE TEXT: Test B: preventive spray on wheat seedlings, wheat leaf blotch, visual disease rating
- Assay type: in vivo
- CONDITION NOTES: test suspension 250 ppm; wheat seedlings
Marks after values point to notes of the source that are not given here.

Guide cases for Test B disease control rating, answers given:
{"columns": ["STRUCTURE AS SMILES", "MEASURE NAME", "REPORTED RESULT"],
 "data": [
  ["O=C(NC1CC1)c1csc(Cc2ccc(-c3noc(C(F)(F)F)n3)cc2)n1", "Test B disease control rating", "99* %"],
  ["NC(=O)c1csc(Cc2ccc(-c3noc(C(F)(F)F)n3)cc2)n1", "Test B disease control rating", "97* %"],
  ["FC(F)(F)c1nc(-c2ccc(OCc3nc4ccccc4o3)cc2)no1", "Test B disease control rating", "4* %"],
  ["N#CCNC(=O)c1ccc(Cc2ccc(-c3noc(C(F)(F)F)n3)cc2)cc1", "Test B disease control rating", "0* %"],
  ["FC(F)(F)c1nc(-c2ccc(Cn3cc(Br)cn3)cc2)no1", "Test B disease control rating", "0%"],
  ["CCOC(=O)c1cnn(CCn2nc(-c3noc(C(F)(F)F)n3)ccc2=O)c1", "Test B disease control rating", "0* %"],
  ["O=S1(=O)CCCCN1Cc1ccc(-c2noc(C(F)(F)F)n2)cc1", "Test B disease control rating", "99* %"],
  ["CN(C)C(=O)c1cc(COc2ccc(-c3noc(C(F)(F)F)n3)cc2)on1", "Test B disease control rating", "86* %"]
]}

// below: Test B disease control rating requested for another molecule
Query (molecule): FC(F)(F)c1nc(-c2cnn(CCCn3cc(-c4noc(C(F)(F)F)n4)cn3)c2)no1 ; field requested: Test B disease control rating
1* %

---

melting point by entry:

{"columns": ["MOLECULE", "REPORTED RESULT"],
 "data": [
  ["O=C(NCCC(F)(F)F)c1coc(Cc2ccc(-c3noc(C(F)(F)F)n3)cc2)n1 [Compound 330]", "104 to 105 °C"],
  ["O=C(NCCn1cccn1)c1coc(Cc2ccc(-c3noc(C(F)(F)F)n3)cc2)n1 [Compound 264]", "125 to 126 °C"],
  ["O=C(NCC(F)(F)F)c1coc(Cc2ccc(-c3noc(C(F)(F)F)n3)cc2)n1 [Compound 316]", "164 to 168 °C"]
]}

Look up melting point for this molecule: N#CCc1cc(Cc2ccc(-c3noc(C(F)(F)F)n3)cc2)on1 [Compound 510]
101 to 104 °C

Thanks! And O=C(NCC(F)F)c1csc(Cc2ccc(-c3noc(C(F)(F)F)n3)cc2)n1 [Compound 505] ?
83 to 92 °C

Can you check Cn1nc(C(=O)NCC(F)(F)F)cc1Cc1ccc(-c2noc(C(F)(F)F)n2)cc1 [Compound 509] next?
142 to 142.9 °C

Cool, now COCCNC(=O)c1noc(Cc2ccc(-c3noc(C(F)(F)F)n3)cc2)n1 [Compound 511]
80 to 85 °C

Try this molecule next: COCCNC(=O)c1csc(Cc2ccc(-c3noc(C(F)(F)F)n3)cc2)n1 [Compound 394]
83 to 87 °C

Further, for Cn1nc(Cc2ccc(-c3noc(C(F)(F)F)n3)cc2)cc1C(=O)NCC(F)(F)F [Compound 512] ?
156 to 160 °C

And N#CCn1ccc(Cc2ccc(-c3noc(C(F)(F)F)n3)cc2)n1 [Compound 507] ?
111 to 114 °C

Repeat with O=C(NCC(F)(F)F)c1noc(Cc2ccc(-c3noc(C(F)(F)F)n3)cc2)n1 [Compound 506]
116 to 120 °C

---

- Tested on: Zymoseptoria tritici (the causal agent of wheat leaf blotch)
- PROCEDURE TEXT: Test B: preventive spray on wheat seedlings, wheat leaf blotch, visual disease rating
- Format: in vivo
- CONDITION NOTES: test suspension 255 ppm; wheat seedlings
Is Test B disease control rating at least 60%? Then T. If not, F.

The following compounds have reported results that may help.
{"columns": ["COMPOUND", "CLASS"],
 "data": [
  ["CCNC(=O)C1=NOC(Cc2ccc(-c3noc(C(F)(F)F)n3)cc2)C1 (stereo not shown)", "T"],
  ["CCOC(=O)c1c2ccccc2nn1Cc1ccc(-c2noc(C(F)(F)F)n2)cc1", "F"],
  ["CCOC(=O)c1cnn(Cc2ccc(-c3noc(C(F)(F)F)n3)s2)c1", "T"],
  ["FC(F)(F)c1nc(-c2ccc(Cn3ncc4cc(Br)ccc43)cc2)no1", "F"],
  ["O=C1CCN(Cc2ccc(-c3noc(C(F)(F)F)n3)cc2)CC1", "F"]
]}

We next turn to a different compound, shown below.
Tell me whether Test B disease control rating is at least 60% here: COC(=O)c1ncn(Cc2ccc(-c3noc(C(F)(F)F)n3)cc2)n1
T

---

- Test system: Phakopsora pachyrhizi (the causal agent of Asian soybean rust)
- PROCEDURE TEXT: Test A: preventive spray on soybean seedlings, Asian soybean rust, visual disease rating
- Format: in vivo
- CONDITION NOTES: test suspension 10 ppm; soybean seedlings; 100 = 100% disease control, 0 = no control
Measured Test A disease control rating of individual entries
Give the value in % but do not write % after it.

{"columns": ["STRUCTURE AS SMILES", "TESTED TARGET", "UNIT OF MEASUREMENT", "Test A disease control rating"],
 "data": [
  ["FC(F)(F)c1nc(-c2ccc(CN3Cc4ccccc4C3)cc2)no1", "Phakopsora pachyrhizi (the causal agent of Asian soybean rust)", "%", 99],
  ["FC(F)(F)c1nc(-c2ccc(Cn3ncc4cnc(Cl)nc43)cc2)no1", "Phakopsora pachyrhizi (the causal agent of Asian soybean rust)", "%", 100],
  ["N#Cc1cccc2nn(Cc3ccc(-c4noc(C(F)(F)F)n4)cc3)cc12", "Phakopsora pachyrhizi (the causal agent of Asian soybean rust)", "%", 100],
  ["CCOC(=O)c1cc(C(C)C)n(Cc2ccc(-c3noc(C(F)(F)F)n3)cc2)n1", "Phakopsora pachyrhizi (the causal agent of Asian soybean rust)", "%", 100]
]}

Which Test A disease control rating value is on record for CN(C)C(=O)c1coc(Cc2ccc(-c3noc(C(F)(F)F)n3)cc2)n1 ?
100

Can you check O=C(NCCn1cccn1)c1coc(Cc2ccc(-c3noc(C(F)(F)F)n3)cc2)c1 next?
100

Try Cc1c2cc(Br)ccc2nn1Cc1ccc(-c2noc(C(F)(F)F)n2)cc1 next.
99

Now consider NC(=O)c1coc(Cc2ccc(-c3noc(C(F)(F)F)n3)cc2)n1 and answer again.
100

For N#CC(C#N)NC(=O)c1coc(Cc2ccc(-c3noc(C(F)(F)F)n3)cc2)n1 then?
100

---

- Tested on: Puccinia recondita f. sp. tritici (the causal agent of wheat leaf rust)
- PROCEDURE TEXT: Test C: preventive spray on wheat seedlings, wheat leaf rust, visual disease rating
- Assay type: in vivo
- CONDITION NOTES: Puccinia recondita, 168 h; 10 ppm test suspension; wheat seedlings; 100 = 100% disease control, 0 = no control
MEASURE NAME: pest or weed control at 10 ppm (%)
State just the number; it will be interpreted in %.

{"columns": ["COMPOUND", "MEASURE NAME", "REPORTED RESULT"],
 "data": [
  ["CCNC(=O)c1cnn(COCc2ccc(-c3noc(C(F)(F)F)n3)cc2)c1 [Compound 508]", "pest or weed control at 10 ppm", 100],
  ["O=C(NCC(F)(F)F)c1csc(Cc2ccc(-c3noc(C(F)(F)F)n3)cc2)n1 [Compound 463]", "pest or weed control at 10 ppm", 100],
  ["O=C(c1coc(Cc2ccc(-c3noc(C(F)(F)F)n3)cc2)n1)N1CCC(F)(F)C1 [Compound 402]", "pest or weed control at 10 ppm", 90]
]}

Below: the item to evaluate.
Returns the measured pest or weed control at 10 ppm for the input compound. Input: O=C(NCCF)c1coc(Cc2ccc(-c3noc(C(F)(F)F)n3)cc2)n1 [Compound 400]
100

---

- System: Phakopsora pachyrhizi (the causal agent of Asian soybean rust)
- PROCEDURE TEXT: Test A: preventive spray on soybean seedlings, Asian soybean rust, visual disease rating
- Type: in vivo
- CONDITION NOTES: Phakopsora pachyrhizi, 216 h; test suspension 50 ppm; soybean seedlings
- Description: General protocol for preparing test suspensions for Tests A-D: the test compounds were first dissolved in acetone in an amount equal to 3% of the final volume and then suspended at the desired concentration (in ppm) in acetone and purified water (50/50 mix by volume) containing 250 ppm of the surfactant PEG400 (polyhydric alcohol esters). The resulting test suspensions were then used in Tests A-D. The test suspension was sprayed to the point of run-off on soybean seedlings. […]
pest or weed control at 50 µg/mL: recorded values
Write the number in % without appending the unit.

For the molecule COc1cccc(Cn2ccc(-c3noc(C(F)(F)F)n3)cc2=O)c1 , what pest or weed control at 50 µg/mL is on record?
97

// same read-out, input: CCOC(=O)c1cnn(Cc2cccc(-c3noc(C(F)(F)F)n3)c2)c1
100

# iterate: O=c1ccc(Cl)nn1Cc1ccc(-c2noc(C(F)(F)F)n2)cc1
100

Another molecule to look at: CN(C)C(=O)C1=NOC(CCOc2cccc(-c3noc(C(F)(F)F)n3)c2)C1 (stereo not shown)
100
